For each of the compounds below, state its growth inhibition.
- assay comment: NCI Yeast Anticancer Drug Screen. Data for the mlh1 rad18 strain (AID 175)
- assay conditions: S. cerevisiae mlh1 rad18 strain growth inhibition; at 50.0 µM; stronger effect = higher value
- Description: Growth inhibition of yeast strains with defined genetic alterations is measured as a screen for potential anti-cancer activity. Selected strains with alterations in DNA damage repair or cell cycle control were exposed to compounds and growth inhibition was measured relative to vehicle treated controls. The strain used in this assay is mlh1 rad18
About 79,000 compounds went through this panel and 15% of them were active in at least one assay; those are over-represented in the sample as a whole.
The response must be a number in % with no trailing unit.

Value of measured growth inhibition for the entry C[Si](C)(C)CS(=O)[O-].[C-]#[O+].[C-]#[O+].[Fe+6].[c-]1[c-][c-][cH-][c-]1 : 6.65

Value of measured growth inhibition for the entry C[C@]12CC[C@H]3[C@@H](CC=C4C=C(P(=O)(O)O)CC[C@@]43C)[C@@H]1CC[C@@H]2O : -10.1

Value of measured growth inhibition for the entry O=C(O)/C=C/C(=O)O.[Ni] : 0.5

Value of measured growth inhibition for the entry N#CS.[Co+3].[NH-]CC[NH-].[NH-]CC[NH-].[NH-]CC[SH2+] : 9.65

Value of measured growth inhibition for the entry C=CCOC(=O)Cc1ccccc1 : -3.9

* * *

For each of the compounds below, state its growth inhibition.
- assay comment: NCI Yeast Anticancer Drug Screen. Data for the mlh1 rad18 strain (AID 175)
- assay conditions: S. cerevisiae mlh1 rad18 strain growth inhibition; at 50.0 µM; stronger effect = higher value
Compounds without any hit were thinned out: in the full panel of roughly 79,000, 15% have a hit.
The response must be a number in % with no trailing unit.

Value of measured growth inhibition for the entry COc1ccc(C=C(C#N)C#N)cc1OC : -0.25

Value of measured growth inhibition for the entry CC(=O)Nc1nn[nH]n1 : 17.5

Value of measured growth inhibition for the entry NCCN.O=C([O-])[O-].O=C([O-])[O-].[Co+3].[K+] : -5.55

Value of measured growth inhibition for the entry C[C@]12CC[C@H](O[C@@H]3O[C@H](CO[C@@H]4O[C@H](CO)[C@@H](O)[C@H](O)[C@H]4O)[C@@H](O)[C@H](O)[C@H]3O)C[C@@H]1CC[C@@H]1[C@@H]2CC[C@]2(C)[C@@H](C3=CC(=O)OC3)CC[C@]12O : 8.85

Value of measured growth inhibition for the entry CCC(=O)OC1(c2ccccc2)CCN(C/C=C/c2cccc3ccccc23)CC1 : 87.2

Value of measured growth inhibition for the entry CCN1CCOC(O)(c2cc(Cl)cc(Cl)c2Cl)C1 (stereo not drawn) : 14.8

Value of measured growth inhibition for the entry C[CH2][Sn](/[CH]=C\CO)([CH2]C)[CH2]C : 94.6

Value of measured growth inhibition for the entry O=c1[nH]c(=O)n(Cl)c(=O)n1Cl : 21.9

Value of measured growth inhibition for the entry Clc1ccc(NC2=NCCS2)cc1Cl : 10.9

Value of measured growth inhibition for the entry C/C(CCl)=N/NC1=NC(C)(CCC2(C)N=C(N/N=C(/C)CCl)SP2(=O)NC23CC4CC(CC(C4)C2)C3)P(=O)(NC23CC4CC(CC(C4)C2)C3)S1 (stereo not drawn) : -28.8

Value of measured growth inhibition for the entry CO[C@H](C)[C@](O)(C(=O)OCC1=CCN2CC[C@@H](O)[C@H]12)C(C)C : -13.6

Value of measured growth inhibition for the entry COc1cc(/C=N/NC(=O)CN(C)C)cc(OC)c1N(CCCl)CCCl : 5.2

Value of measured growth inhibition for the entry O=NNc1cncc(NN=O)n1 : 3.75

Value of measured growth inhibition for the entry O=[N+]([O-])C1(Cl)CCC(Cl)([N+](=O)[O-])CC1 (stereo not drawn) : -18.3

Value of measured growth inhibition for the entry N#CCc1ccc(O)cc1 : 14

Value of measured growth inhibition for the entry Cn1c2c(c3ccccc31)CCN1OCC=C[C@@H](C(=O)O)[C@@H]21 : -8.85

Value of measured growth inhibition for the entry NC1C(=O)NC(=O)NC1=O : 22.8

Value of measured growth inhibition for the entry CN(C)C(=O)Sc1cc(Cl)c(S(=O)(=O)F)cc1Cl : 14.9

Value of measured growth inhibition for the entry O=P(N=C=S)(N=C=S)N=C=S : -12.8

Value of measured growth inhibition for the entry O=c1[nH]cc(N=Cc2ccccc2F)c(=O)[nH]1.[Cl][Pt][Cl] : 8.95

Value of measured growth inhibition for the entry CC1(C(=O)O)OC1c1ccccc1 (stereo not drawn) : -7.7

Value of measured growth inhibition for the entry O=C(COc1ccccc1Cl)Nc1ccc[n+](Cc2ccc(S(=O)(=O)F)cc2)c1 : -0.7

Value of measured growth inhibition for the entry CCCCC(C(=O)NN)P(=O)(OCC)OCC (stereo not drawn) : 0.95

Value of measured growth inhibition for the entry O=P(O)(O)SP(=O)(O)O.[Zn+2] : -1.35

Value of measured growth inhibition for the entry CC(=O)C(C(C)=O)C(C)=O.[Cr] : 6.45

Value of measured growth inhibition for the entry Cc1cc2oc(=O)c3c(c2c(O)c1CN1CCOCC1)CCCC3 : 15.8

Value of measured growth inhibition for the entry COc1ccccc1CCN : -29.3

Value of measured growth inhibition for the entry COc1ccc([As]=O)cc1N (stereo not drawn) : -10.5

Value of measured growth inhibition for the entry O=C(Oc1cc(Cl)c(S(=O)(=O)F)cc1Cl)c1ccc([N+](=O)[O-])cc1 : 89.9

Value of measured growth inhibition for the entry CCOP(O)(=S)OCC.[Sm] : -15.8

Value of measured growth inhibition for the entry CO[C@H](C)[C@](O)(C(=O)OCC1=CC[N+]2([O-])CC[C@H](O)[C@@H]12)C(C)C (stereo partly drawn) : -10.2

Value of measured growth inhibition for the entry Cc1ccc(C[N+](C)(C)C)cc1 : 4.5

Value of measured growth inhibition for the entry Cc1ccccc1.[C-]#[O+].[C-]#[O+].[C-]#[O+].[W] : -8.05

Value of measured growth inhibition for the entry O=C1c2ccccc2C(=O)c2ccccc21 : 47.5

Value of measured growth inhibition for the entry N=P(c1ccccc1)(c1ccccc1)c1ccccc1.[Cr+6].[N-]=C=S.[N-]=C=S.[N-]=C=S.[N-]=C=S.[NH2-].[NH2-] : 0

Value of measured growth inhibition for the entry Cc1nnc(NC2=NCCO2)s1 : -4

Value of measured growth inhibition for the entry CS/C([S-])=N/N=C\c1ccccn1.CS/C([S-])=N/N=C\c1ccccn1.[Ni+2] : -0.45

Value of measured growth inhibition for the entry O=[N+]([O-])c1ccc(O)c(C=NCCN=Cc2cc([N+](=O)[O-])ccc2O)c1.[Ni+2] : -22.4

Value of measured growth inhibition for the entry CN(C)CCNC(=O)c1cccc(COC(=O)N(CCCl)CCCl)c1[N+](=O)[O-] : 9.7

Value of measured growth inhibition for the entry Cc1cccc(CCl)c1 : -23.4

Value of measured growth inhibition for the entry NC1(C(=O)O)CCCC1 : -28.1

Value of measured growth inhibition for the entry O=[N+]([O-])C(CO)CCCC(CO)[N+](=O)[O-] (stereo not drawn) : 11.4

Value of measured growth inhibition for the entry CSCCC(NC(=O)C(Cc1ccccc1)NC(=O)CNC(=O)CNC(=O)C(N)Cc1ccc(O)cc1)C(=O)O (stereo not drawn) : 16.2

Value of measured growth inhibition for the entry Nc1ccc(S(=O)(=O)F)cc1 : -22.2

Value of measured growth inhibition for the entry N=Cc1c(O)[nH]c(=O)[nH]c1=O : -0.8

Value of measured growth inhibition for the entry CCOP(=O)(OCC)/C(C#N)=C/c1nccn1C : -34.4

Value of measured growth inhibition for the entry COc1cc(/C=C(\C)[N+](=O)[O-])cc(OC)c1 : 86.3

Value of measured growth inhibition for the entry c1ccc(CCN2CCCCC2)nc1 : -0.85
